Answer each item with its documented LD50 at 72 h.
Test: Acute toxicity determination (LD50)
Format: in vivo
Details: Albino Swiss, mouse, in vivo, ip, mice observed for 72 hours
A number alone suffices; assume mg/kg.

[in] Fill blank: measured LD50 at 72 h of the compound CCOC(=O)C1=C(C)N2CCCC(=O)N=C2S1 is ____.
[out] 670

[in] Bench note: what LD50 at 72 h did CC1=C(Br)SC2=NC(=O)CCCN21 show?
[out] 640
